Assay: log P value (octanol/water partition coefficient)
Assay type: physicochemical
Conditions: octanol / aqueous buffer solution at pH 7
Peptide text beside a SMILES is read from it.
Recorded logP by entry
experimental_readout: logP

INSERT INTO measurements (compound, readout_number) VALUES
  ('NC[C@H]1CC[C@H](C(=O)O)CC1 [tranexamic acid, reference compound]', -2),
  ('NC(=O)c1cccnc1 [niacinamide]', -0.4),
  ('OC[C@@H](O)[C@H](O)[C@@H](O)CO', -2.5),
  ('NCC(=O)NCC(=O)O [glycylglycine] (H-Gly-Gly-OH)', -2.3),
  ('OC[C@H]1O[C@@H](Oc2ccc(O)cc2)[C@H](O)[C@@H](O)[C@@H]1O', -0.7),
  ('NCCS(=O)(=O)O', 1.4),
  ('CC(O)CCO (stereo not shown)', -0.4),
  ('O=C1O[C@H]([C@@H](O)CO)C(O)=C1O', 1.6),
  ('C[N+](C)(C)CC(=O)[O-]', 0.1),
  ('Cc1ncc(CO)c(CO)c1O', -0.8);
